Here, each record is paired with measured Anticoagulation effect data.
test system: normal human plasma; assay: Measurement of anticoagulation effects (plasma prothrombin time); format: biochemical; conditions: CT2, concentration that prolonged the clotting time (prothrombin time) of control by 2 times
Counter-ions that a name gives are not always drawn.
Entry format: amount then unit.

Below, 4 molecules whose answers are already recorded.
CC(=N)N1CCC(c2ccc(NC(=O)CN(Cc3cccc(O)c3)c3cccc(C(=N)N)c3)cc2)CC1.Cl.Cl :: 0.17 µM
CC(=N)N1CCC(c2ccc(NC(=O)CN(Cc3nc[nH]c3C)c3cccc(C(=N)N)c3)cc2)CC1.Cl.Cl :: 0.30 µM
CC(=N)N1CCC(c2ccc(NC(=O)CN(CC=C(C)C)c3cccc(C(=N)N)c3)cc2)CC1.Cl.Cl :: 0.091 µM
CC(=N)N1CCC(Oc2ccc(NC(=O)CN(Cc3ccccc3)c3cccc(C(=N)N)c3)cc2)CC1 [Compound 58, dihydrochloride] :: 0.24 µM

INPUT: Report Anticoagulation effect for CC(C)=CCN(CC(=O)Nc1ccc(OC(C)C)cc1)c1cccc(C(=N)N)c1.Cl tested on normal human plasma.
OUTPUT: 0.29 µM

INPUT: Same lookup for CC(=N)N1CCC(c2ccc(NC(=O)CN(Cc3cccc(OCC(=O)O)c3)c3cccc(C(=N)N)c3)cc2)CC1.Cl.Cl , please.
OUTPUT: 0.21 µM

All values here come from patent EP1020434A1.
